# Test system: MRSA
# Test protocol: Kill or inhibit growth/proliferation; morphology, biofilm and growth disruption (Tables 5, 6); note: test concentration or dose not given here
# Format: cell-based, Methicillin-resistant Staphylococcus aureus
# Parameters: key: A: Peptide aggregates; B: Less hyphal formation; Clumps; Diffuse clumps and small polyps; F: Diffuse growth; H: Thin; I: Growth inhibition; Microcolony formation; Rippled; Small polyps; Thick; W: Halo formation on top, microlonies on bottom
Ends that are not written are not given here.
Result type: Organism, effect

INSERT INTO assay_data (substance, reported_measurement) VALUES
  ('PF-020: peptide having multiple activities (chain 1 MKIILLLFLIFGFIVVVTLKSEHQLTLFSI; chain 2 MKIILLLFLIFGFIVVVTLKSEHQLTLFSI; Peptide with targeting and/or antimicrobial activity)', 'MRSA (C)'),
  ('PF-450: peptide having multiple activities (chain 1 HRNLIILQRTIFI; chain 2 HRNLIILQRTIFI; Peptide with targeting and/or antimicrobial activity)', 'MRSA (C)'),
  ('PF-356: peptide having multiple activities (chain 1 VSIKIGAIVIGMIGLMELLTE; chain 2 VSIKIGAIVIGMIGLMELLTE; Peptide with targeting and/or antimicrobial activity)', 'MRSA (C)'),
  ('PF-619: peptide having multiple activities (WSRVPGHSDTGWKVWHRW; Peptide with targeting and/or antimicrobial activity)', 'MRSA (M)'),
  ('PF-063: peptide having multiple activities (chain 1 IAAIIVLVLFQKGLLQIFNWILIQLQ; chain 2 IAAIIVLVLFQKGLLQIFNWILIQLQ; Peptide with targeting and/or antimicrobial activity)', 'MRSA (M)'),
  ('PF-418: peptide having multiple activities (FFLVHFYIRKRKGKVSIFLNYF; Peptide with targeting and/or antimicrobial activity)', 'MRSA (D)'),
  ('PF-035: peptide having multiple activities (chain 1 SFYESY; chain 2 SFYESY; Peptide with targeting and/or antimicrobial activity)', 'MRSA (M)'),
  ('PF-460: peptide having multiple activities (chain 1 MEHVLPFQNTPPNIVIIYKDFTHLKSITFS; chain 2 MEHVLPFQNTPPNIVIIYKDFTHLKSITFS; Peptide with targeting and/or antimicrobial activity)', 'MRSA (C)'),
  ('PF-401: peptide having multiple activities (YWLSRVTTGHSFAFEKPVPLSLTIK; Peptide with targeting and/or antimicrobial activity)', 'MRSA (C)'),
  ('PF-395: peptide having multiple activities (YCVPLGNMGNMNNKIW; Peptide with targeting and/or antimicrobial activity)', 'MRSA (C)'),
  ('PF-526: peptide having multiple activities (chain 1 VLLLFIFQPFQKQLL-NH2; chain 2 VLLLFIFQPFQKQLL-NH2)', 'MRSA (C)'),
  ('PF-393: peptide having multiple activities (chain 1 DLVQSILSEFKKSG; chain 2 DLVQSILSEFKKSG; Peptide with targeting and/or antimicrobial activity)', 'MRSA (C)'),
  ('WSRVPGHSDTGWKVWHRW-NH2 [PF-547]', 'MRSA (M)'),
  ('PF-411: peptide having multiple activities (WVAVAILLNIALQTQLT; Peptide with targeting and/or antimicrobial activity)', 'MRSA (D)'),
  ('PF-396: peptide having multiple activities (LIYTILASLGVLTVLQAILGREPKAVKA; Peptide with targeting and/or antimicrobial activity)', 'MRSA (C)'),
  ('PF-417: peptide having multiple activities (DSYFRS; Peptide with targeting and/or antimicrobial activity)', 'MRSA (M)'),
  ('PF-031: peptide having multiple activities (chain 1 MPHHSTTSSRIVVPAHQSNMASTPNLSITP; chain 2 MPHHSTTSSRIVVPAHQSNMASTPNLSITP; Peptide with targeting and/or antimicrobial activity)', 'MRSA (M)');
